- System: SK-OV-3 ovarian
- experimental-details: NCI tumour cell line growth inhibition, 48 h
metric: TGI

Q: Given the entry COc1ccc(/C=C2\CCC(CNc3cc(C)on3)C2=O)cc1 (stereo not given) , report its measured TGI.
Ans: > 100 µM

Q: Given the entry `CCC1(CC)C(=O)OC(=O)C1(CC)CC` , report its measured TGI.
Ans: > 100 µM

Q: Given the entry C=C1C(=O)C23CC1C[C@H](OC(C)=O)[C@H]2C1(C)C(OC(C)=O)C[C@H](O)C(C)(C)[C@H]1C(=O)[C@@H]3OC(C)=O (stereo not given in full) , report its measured TGI.
Ans: 32 µM

Q: Given the entry OC1(CCc2ccccc2)COC(C(F)(F)F)(C(F)(F)F)C1 (stereo not given) , report its measured TGI.
Ans: > 100 µM

Q: Given the entry ClC1(Cl)C(c2ccccc2)C1c1ccccc1 (stereo not given) , report its measured TGI.
Ans: 55.7 µM

Q: Given the entry CC(C)=CCC[C@@H](C)C1=C(O)C(O)C(C)=C2N=C(c3ccccc3)C(=O)OC21 (stereo not given in full) , report its measured TGI.
Ans: 11.1 µM

Q: Given the entry `CC(=O)C(=[N+]=[N-])C(=O)NCC#N` , report its measured TGI.
Ans: > 10 µM

Q: Given the entry COC(=O)C(Cc1c[nH]c2ccccc12)N=C1Nc2ccncc2S(=O)(=O)N1c1ccccc1 (stereo not given) , report its measured TGI.
Ans: > 100 µM

Q: Given the entry O=C(c1ccccc1)c1ccc2nc3n(c2c1)C(c1c(F)cccc1F)SC3 (stereo not given) , report its measured TGI.
Ans: 26.7 µM

Q: Given the entry `N#C/C(=C\c1cn(Cc2ccccc2)c2ccccc12)c1nn(-c2ccccc2)c(N)c1C#N` , report its measured TGI.
Ans: 40 µM

Q: Given the entry CC12OC(c3ccccc3)=CC(c3ccc(Cl)cc3)=C1C(c1ccccc1)=CC2=O (stereo not given) , report its measured TGI.
Ans: > 100 µM

Q: Given the entry `Cc1oc2c(c1C)S(=O)(=O)C(C#N)=C(c1ccccc1)N2` , report its measured TGI.
Ans: > 100 µM

Q: Given the entry `COc1cccc(OC/C(N=Cc2cccnc2)=N/NC(=O)c2ccncc2)c1` , report its measured TGI.
Ans: > 100 µM

Q: Given the entry `CN(C)c1ccc(/C=N\NC(=O)c2ccccc2Nc2ccccc2C(=O)N/N=C/c2ccc(N(C)C)cc2)cc1` , report its measured TGI.
Ans: > 100 µM

Q: Given the entry C=CCC(N[C@H](CO)c1ccccc1)c1ccc2ccccc2n1 (stereo not given in full) , report its measured TGI.
Ans: > 100 µM

* * *

What TGI was measured for each of the following?
- Tested on: SF-268 CNS
- experimental-details: NCI tumour cell line growth inhibition, 48 h
Where a SMILES comes first, the peptide text is derived from it. The star is where a group is joined. Boc = CC(C)(C)OC(=O)*; OBn = c1ccc(CO*)cc1

Q: Which measured TGI belongs to `Cc1ccc(-n2cnc3c(N)nc(N)nc32)cc1` , tested on SF-268 CNS?
Ans: > 100 µM

Q: Which measured TGI belongs to CSc1ccc(C2=NN(C(=O)c3ccc(F)cc3)C(c3ccc(F)cc3)C2)cc1 (configuration not stated) , tested on SF-268 CNS?
Ans: 13.4 µM

Q: Which measured TGI belongs to COc1ccc(N2C(=O)CC(Cl)C2=O)cc1 (configuration not stated) , tested on SF-268 CNS?
Ans: > 100 µM

Q: Which measured TGI belongs to `CC(=O)Oc1cc2c(n(C)c1=O)-c1ccccc1C2` , tested on SF-268 CNS?
Ans: > 100 µM

Q: Which measured TGI belongs to CCOC(=O)C1=CN/C(=C(/C)C(=O)OC)SC1C(=O)OCC (configuration not stated) , tested on SF-268 CNS?
Ans: > 100 µM

Q: Which measured TGI belongs to CCN(CC)CCC(=O)NC1c2ccc(Cl)cc2Oc2c(C)cccc21 (configuration not stated) , tested on SF-268 CNS?
Ans: 38.9 µM

Q: Which measured TGI belongs to `CN1CCN(CCCN)CC1` , tested on SF-268 CNS?
Ans: > 100 µM

Q: Which measured TGI belongs to `Cc1c(C)c2c(c(N)c1C#N)C(=O)N(CCc1ccccc1)C2=O` , tested on SF-268 CNS?
Ans: > 100 µM

Q: Which measured TGI belongs to `COc1cc2c(cc1OCCCOc1cc3c(cc1OC)C(=O)N1C[C@H](F)C[C@H]1C=N3)N=C[C@@H]1C[C@@H](F)CN1C2=O` , tested on SF-268 CNS?
Ans: 6.01 µM

Q: Which measured TGI belongs to `CC1(C)CN=C(c2ccc3c(c2)Cc2cc(C4=NCC(C)(C)N4)ccc2-3)N1` , tested on SF-268 CNS?
Ans: > 100 µM

Q: Which measured TGI belongs to Cc1[nH]c2ccccc2c1C1Cc2ccccc2N1C(=O)/C=C\C(=O)O (configuration not stated) , tested on SF-268 CNS?
Ans: 68.4 µM

Q: Which measured TGI belongs to `CCOC(=O)Nc1nc2ccc(Cn3cccc3)cc2[nH]1` , tested on SF-268 CNS?
Ans: > 100 µM

Q: Which measured TGI belongs to COc1cc(S(=O)(=O)Nc2nc(-c3ccc(N4C(=O)CSC4c4cccs4)cc3)cs2)ccc1Cl (configuration not stated) , tested on SF-268 CNS?
Ans: > 100 µM

Q: Which measured TGI belongs to Cc1ccc2nc(CN3CCCC(O)C3)cc(=O)n2c1 (configuration not stated) , tested on SF-268 CNS?
Ans: > 100 µM

Q: Which measured TGI belongs to `Cc1oc2c(c1C)S(=O)(=O)C(C#N)=C(c1ccccc1)N2` , tested on SF-268 CNS?
Ans: > 100 µM

Q: Which measured TGI belongs to `O=S(=O)(NC1=NCCN1C(=S)SN1CCn2c1nsc2=S)c1ccc(Br)cc1` , tested on SF-268 CNS?
Ans: > 100 µM

Q: Which measured TGI belongs to `CCN(CC)C(=C(C(Cl)=C(Cl)Cl)[N+](=O)[O-])N(CC)CC` , tested on SF-268 CNS?
Ans: > 100 µM

Q: Which measured TGI belongs to CC(=O)O[C@H]1CC[C@H]2[C@@H]3CCC4C(C)=NNC(=O)C4[C@H]3CC[C@]12C (some centres not stated) , tested on SF-268 CNS?
Ans: > 100 µM

Q: Which measured TGI belongs to `COc1cc(OC)c(/C=C/S(=O)(=O)Cc2cnc(OC)c(N)c2)c(OC)c1` , tested on SF-268 CNS?
Ans: > 100 µM

Q: Which measured TGI belongs to `O=C1CC(=O)NC(=NN2C(=O)/C(=C/C(=O)c3ccco3)N=C2c2ccccc2)N1` , tested on SF-268 CNS?
Ans: > 100 µM

Q: Which measured TGI belongs to CC(C)C(NC(=O)C(Cc1ccccc1)NC(=O)OC(C)(C)C)C(=O)NCC(=O)OCc1ccccc1 (stereo not drawn) (Boc-Phe-Val-Gly-OBn; configuration not given here) , tested on SF-268 CNS?
Ans: 28.2 µM

Q: Which measured TGI belongs to COC(=O)CCc1cc(OC)c2c(c1)C(C(=O)OC)C(c1ccc(OC)c(OC)c1)O2 (configuration not stated) , tested on SF-268 CNS?
Ans: > 100 µM

Q: Which measured TGI belongs to O=C(c1ccccc1)c1ccc2nc3n(c2c1)C(c1c(F)cccc1F)SC3 (configuration not stated) , tested on SF-268 CNS?
Ans: > 70.2 µM

Q: Which measured TGI belongs to `O=C1c2cccc3cc([N+](=O)[O-])cc(c23)C(=O)N1CCCN1CCN(CCCNc2ccc3ncn4c5ccccc5c(=O)c2c34)CC1` , tested on SF-268 CNS?
Ans: 16.1 µM

Q: Which measured TGI belongs to CCCCCCCCC[C@@H]1CC(=O)OCC2OC(O[C@H](CCCCCCCCC)CC(=O)OCC3OC(O[C@H](CCCCCCCCC)CC(=O)OCC4OC(O1)C(O)C(O)C4O)C(O)C(O)C3O)C(O)C(O)C2O (some centres not stated) , tested on SF-268 CNS?
Ans: 7.74 µM

Q: Which measured TGI belongs to `COc1cc(C(=O)/C(C)=C/c2c[nH]c3ccccc23)cc(OC)c1OC` , tested on SF-268 CNS?
Ans: 10.6 µM

Q: Which measured TGI belongs to `CCC1(CC)C(=O)OC(=O)C1(CC)CC` , tested on SF-268 CNS?
Ans: > 100 µM

Source of measurements: PubChem BioAssay (NCI)
